# test-system: CCR2 (Homo sapiens)
# Sequence (P41597 1-360 isoform P41597-2): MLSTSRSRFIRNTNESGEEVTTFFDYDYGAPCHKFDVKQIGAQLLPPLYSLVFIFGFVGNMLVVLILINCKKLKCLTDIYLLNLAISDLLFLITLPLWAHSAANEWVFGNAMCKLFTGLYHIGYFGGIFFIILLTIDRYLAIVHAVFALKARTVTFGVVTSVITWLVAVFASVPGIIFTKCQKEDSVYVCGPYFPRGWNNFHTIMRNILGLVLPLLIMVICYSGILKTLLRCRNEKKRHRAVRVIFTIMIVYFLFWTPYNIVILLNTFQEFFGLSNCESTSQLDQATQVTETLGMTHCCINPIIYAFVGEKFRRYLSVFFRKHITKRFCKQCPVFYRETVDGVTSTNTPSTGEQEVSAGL
# test-protocol: MCP-1 Receptor Binding Assay in THP-1 Cells
# experimental-context: THP-1 cells, 0.5 nM 125I labeled MCP-1, 2 hours at 30° C.; read-out: Mean Ligand Binding IC50 (inhibition of MCP-1 binding to CCR2)
pIC50: −log10 of the molar value.
Rule: pIC50 of 6 or more gives True; anything lower gives False.

Record `C[N+](C)(Cc1ccc(NC(=O)c2cn(Cc3ccccc3)c3ccccc23)cc1)C1CCOCC1` ; criterion: pIC50 no lower than 6. Met? False

Record `C[N+](C)(Cc1ccc(NC(=O)C=Cc2cccc(Br)c2)cc1)C1CCCCC1` ; criterion: pIC50 no lower than 6. Met? True

Record `C[N+]1(Cc2ccc(NC(=O)c3ccc(Cl)c(Cl)c3)cc2)CCCCC1` ; criterion: pIC50 no lower than 6. Met? False

Record `C[N+](C)(Cc1ccc(NC(=O)c2cc3ccccc3o2)cc1)C1CCOCC1` ; criterion: pIC50 no lower than 6. Met? False

Record `C[N+]1(Cc2ccc(NC(=O)C=Cc3cccc(C(F)(F)F)c3)cc2)CCCCC1` ; criterion: pIC50 no lower than 6. Met? False

Record Cc1cc(Cl)cc2c1OCC(C(=O)Nc1ccc(C[N+](C)(C)C3CCSC3)cc1)=C2 (stereo not drawn) ; criterion: pIC50 no lower than 6. Met? True

Record `Cc1cccc2c1OCC(C(=O)Nc1ccc(C[N+](C)(C)C3CCOCC3)cc1)=C2` ; criterion: pIC50 no lower than 6. Met? True

Record `C[N+]1(Cc2cccc(NC(=O)C=Cc3cccc(Br)c3)c2)CCCCC1` ; criterion: pIC50 no lower than 6. Met? False

Record `C[N+](C)(Cc1ccc(NC(=O)c2sc3ccccc3c2Cl)cc1)C1CCCCC1` ; criterion: pIC50 no lower than 6. Met? False
